The measured values listed here are drawn from patent US20240109971A1.

# measuredTarget: T1, Peptide 1 (amino acid position 1-28 of the human CCR6) (human, biotinylated)
# T1 construct: also called first 28 AA
# T1 peptide: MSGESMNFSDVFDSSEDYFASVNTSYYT
# methodNotes: ELISA, biotinylated peptide on a streptavidin-coated plate

- binder: "AB7 (antibody, V domains shown, Mouse hybridoma antibody; also called clone AB7) VH: QDQLQQSGVALARPGASVKLSCKASEYTFKSFGLGWVKQRPGQGLEWIGEIYPRSGNTYYNEKVKGKVRLTADKSSNSVYMEFRSLTSEDSAVYFCARSPYDGYFDYWGQGTTLTVS VL: DVVMTHSPLSLPVSLGDQASISCRSSQSLLHINGNTYLHWYLQKPGQSPKLLIYRVSNRLSGVPDRFSGSGSGTDFTLKISRVEAEDLGVYFCSQSTHVPRTFGGGTKLEIKR"
  binding result: "binds"
